All figures here come from patent US12357582B2.

- assay: Ion-pairing screening using gentamicin API
- Format: physicochemical
- Design: key: + details reprecipitation observed; − details no reprecipitation observed
- applied_conditions: gentamicin:IP organic solution diluted ten-fold in water
measurement_label: Reprecipitation

# compound, Reprecipitation
measured = [
    ("O=S(=O)([O-])c1ccc2ccccc2c1.[Na+] [Sodium 2-Naphthalenesulfonate, sodium 2-naphthalenesulfonate]", "−"),
    ("CCCCCCCCCCCCc1ccc(S(=O)(=O)[O-])cc1.[Na+] [Sodium Dodecylbenzenesulfonate, sodium dodecylbenezenesulfonate]", "+"),
    ("CCCCCCCCCCCCOS(=O)(=O)[O-].[Na+] [Sodium Dodecyl Sulfate, sodium dodecyl sulfate]", "+"),
    ("CCCCCCCCS(=O)(=O)[O-].O.[Na+] [Sodium 1-Octanesulfonate Monohydrate, sodium 1-octanesulfonate monohydrate]", "−"),
]

// switching to the query compound
For record CCCCCCCCCCS(=O)(=O)[O-].[Na+] [Sodium 1-Decanesulfonate, sodium 1-decanesulfonate] the listed Reprecipitation is +

---

- assay: Ion-pairing screening using polymyxin B API
- Format: physicochemical
- Parameters: key: + details re-precipitation observed; − details no re-precipitation observed
- applied_conditions: polymyxin B:IP organic solution diluted ten-fold in water
measurement_label: Reprecipitation

These solved cases illustrate the format of a correct answer.
# compound, result
records = [
    ("O=S(=O)([O-])c1ccc2ccccc2c1.[Na+] [Sodium 2-Naphthalenesulfonate, sodium 2-naphthalenesulfonate]", "−"),
    ("CCCCCCCC/C=C\\CCCCCCCC(=O)[O-].[Na+] [Sodium Oleate, sodium oleate]", "+"),
    ("CCCCCCCCCCCCOS(=O)(=O)[O-].[Na+] [Sodium Dodecyl Sulfate, sodium dodecyl sulfate]", "+"),
    ("CCCCCCCCCCS(=O)(=O)[O-].[Na+] [Sodium 1-Decanesulfonate, sodium 1-decanesulfonate]", "+"),
    ("CCCCCCCS(=O)(=O)[O-].[Na+] [Sodium 1-Heptanesulfonate, sodium 1-heptanesulfonate]", "−"),
    ("CCCCCCCCS(=O)(=O)[O-].O.[Na+] [Sodium 1-Octanesulfonate Monohydrate, sodium 1-octanesulfonate monohydrate]", "−"),
]

For record CCCCCCCCCC(=O)[O-].[Na+] [Sodium Decanoate, sodium decanoate] the listed Reprecipitation is −

For record CCCCCCCCCCCCc1ccc(S(=O)(=O)[O-])cc1.[Na+] [Sodium Dodecylbenzenesulfonate, sodium dodecylbenezenesulfonate] the listed Reprecipitation is +

---

- assay: Ion-pairing screening using gentamicin API
- Format: physicochemical
- Design: key: +++: + details qualitative observations of the amount of solid formed; ++: + details qualitative observations of the amount of solid formed; + details qualitative observations of the amount of solid formed; − details no solids formed
- applied_conditions: gentamicin API mixed with IP in water
measurement_label: Precipitation

# molecule, result
data = [
    ("CCCCCCCS(=O)(=O)[O-].[Na+] [Sodium 1-Heptanesulfonate, sodium 1-heptanesulfonate]", "−"),
    ("CCCCCCCCCC(=O)[O-].[Na+] [Sodium Decanoate, sodium decanoate]", "+"),
    ("CCCCCCCCCCCCOS(=O)(=O)[O-].[Na+] [Sodium Dodecyl Sulfate, sodium dodecyl sulfate]", "+++"),
    ("CC1(C)C2CC[C@]1(CS(=O)(=O)O)C(=O)C2 [(1R)-(-)-10-Camphorsulfonic Acid, (1R)-(−)-10-camphorsulfonic acid]", "−"),
    ("CCCCCCCCS(=O)(=O)[O-].O.[Na+] [Sodium 1-Octanesulfonate Monohydrate, sodium 1-octanesulfonate monohydrate]", "++"),
]

For record O=S(=O)(O)c1ccccc1 [Benzenesulfonic Acid Monohydrate, benzenesulfonic acid monohydrate] the listed Precipitation is −
